tested on: L1210 leukemia ip in BDF1 mice, survival T/C; experiment: NCI In Vivo Anticancer Drug Screen. Data for tumor model L1210 Leukemia (intraperitoneal) in B6D2F1 (BDF1) mice; conditions: endpoint: mean survival time; dose: 200.0 mg/kg/injection; schedule: Q04DX003 (ip); vehicle: Klucel (hydroxypropylcellulose) (HPC); higher = longer survival
Inconclusive results and toxic doses are left out.
Answer each item with its documented T/C.

Field: example entries. Status: answers known.
Cc1ncc(C(=O)O)s1 | 95 % of control
CCCCCCCCCCCCCCCCN(C(C)C)S(=O)(=O)c1ccc(Cl)c(N)c1 | 96 % of control
Cc1cc(NCCCN(C)C)c2c(c1N)C(=O)c1ccccc1C2=O | 92 % of control
CCCCCCCCCCCCCCCCCCSc1ccccc1 | 93 % of control
Cc1ccc(C)c(NC(=O)Nc2c(C)n(C)n(-c3ccccc3)c2=O)c1 | 89 % of control
N/C(Cc1ccc(Cl)cc1)=N/O | 102 % of control

Need T/C for each of these molecules.
1. c1ccc(C2NC2(c2ccccc2)C2(c3ccccc3)SCCCS2)cc1 (configuration not stated)
2. CCOC(=O)CCC(NC(=O)c1ccc(NC)c([N+](=O)[O-])c1)C(=O)OCC (configuration not stated)
3. O=C1OCCN1C(=O)c1ccc(C(=O)N2CCOC2=O)cc1

Result:
1. 103 % of control
2. 100 % of control
3. 101 % of control

* * *

test system: L1210 leukemia ip in BDF1 mice, survival T/C; test: NCI In Vivo Anticancer Drug Screen. Data for tumor model L1210 Leukemia (intraperitoneal) in B6D2F1 (BDF1) mice; settings: endpoint: mean survival time; dose: 25.0 mg/kg/injection; schedule: Q04DX002 (ip); vehicle: saline; higher = longer survival
Inconclusive results and toxic doses are left out.
assay.readout: T/C

CCCNC(c1ccccc1)=[N+]1CCCCC1 | 98 % of control
CS(=O)(=O)c1nc2ccc([N+](=O)[O-])cc2s1 | 107 % of control
COc1ccc(CC(N)C(=O)N2CC(n3cnc4c(N(C)C)ncnc43)CC2CO)cc1 (stereo not given) | 98 % of control
Cc1cc(C)nc(N)c1 | 114 % of control

As a next step, examine the compound that follows.
Q: What T/C value was documented for this compound, O=C1NCCc2cc3c(cc21)OCO3 ?
Result: 97 % of control

* * *

Give measured T/C for each item. Keep answers brief.
tested on: L1210 leukemia ip in BDF1 mice, survival T/C; assay: NCI In Vivo Anticancer Drug Screen. Data for tumor model L1210 Leukemia (intraperitoneal) in B6D2F1 (BDF1) mice; conditions: endpoint: mean survival time; dose: 200.0 mg/kg/injection; schedule: Q04DX003 (ip); vehicle: saline with Tween-80; higher = longer survival
Toxic doses and inconclusive results are not listed.

Below, 6 compounds whose answers are already recorded.
CN(C)c1ccc(-c2c3cc(O)c(=O)cc-3oc3cc(O)c(O)cc23)cc1 | 87 % of control
NC(=O)C1=CN(Cc2ccccc2)C=CC1 | 106 % of control
c1ccc([Si](c2ccccc2)(c2ccccc2)c2cccs2)cc1 | 90 % of control
c1cc[c]([Bi]([c]2ccccc2)[c]2ccccc2)cc1 | 102 % of control
O=C(/C=N/O)Nc1cc(Cl)c(Cl)cc1Cl | 103 % of control
COC(=O)C12C=CC(C1)n1c(=O)n(-c3ccccc3)c(=O)n12 (stereo unspecified) | 105 % of control

Look at each compound and report its T/C.
1. Cc1cc(Cl)c(=O)n(-c2ccc(Cl)cc2)n1
2. COc1ccc(C2(C#N)CC2)cc1
3. CCOC(=O)c1nc(SCc2ccccc2)n(Cc2ccccc2)c1C(=O)OCC

Result:
98 % of control
101 % of control
107 % of control

Go through the list and state T/C for each entry.
1. CCOC(COC(=O)c1ccccc1C(=O)O)c1ccccc1 (stereo unspecified)
2. [Cl][Fe]([Cl])[Cl]
3. Cc1[nH]c(=O)[nH]c(=O)c1CN1CCCCC1
4. COc1cc(/C=C2/SC(=S)NC2=O)cc(OC)c1OC
5. c1ccc2c(c1)Cc1cc3ccccc3nc1-2
6. O=C1C(Br)(Br)CCCCC1(c1ccccc1)c1ccccc1

Result:
["97 % of control", "94 % of control", "106 % of control", "100 % of control", "93 % of control", "103 % of control"]

Fill in T/C for each of the 7 compounds listed.
1. COc1ccc2[nH]c3c(C)cc(C=O)c(C)c3c2c1
2. Cc1ccccc1C(C)C
3. c1ccc(-c2cc(-c3ccccc3)[nH]n2)cc1
4. CC1(C)C2CCC1(C)C(OC(=O)C1OC(O)C(O)C(O)C1O)C2 (stereo unspecified)
5. Cn1c(C[N+](C)(C)C)cc2ccccc21
6. CCC(N)c1ccc2c3c(cccc13)CC2 (stereo unspecified)
7. CCOc1ccc(C(=O)Cc2ccccc2)cc1

Result:
1: 101 % of control; 2: 98 % of control; 3: 110 % of control; 4: 104 % of control; 5: 96 % of control; 6: 90 % of control; 7: 86 % of control

# batch: return T/C for each of the 4 compounds below
1. Cc1cc(Cl)ccc1NS(=O)(=O)c1ccc(Br)cc1
2. COc1ccc(CCNC(=O)Cc2ccc(OC)c(OC)c2)cc1OC
3. O=C(/C=C/c1ccccc1)NC(=S)Nc1ccccc1C(F)(F)F
4. COc1ccc(C(O)c2ccccn2)cc1 (stereo unspecified)

Result:
100 % of control
94 % of control
91 % of control
98 % of control
